Exercise: for every item that follows, state its recorded Decrease relative to N-7113 (decapping rate).
# ASSAYED SYSTEM: DCP2 enzyme (Schizosaccharomyces pombe, UniProt O13828)
# Construct: purchased New England Biolabs
# Sequence (O13828 1-243 limits assumed): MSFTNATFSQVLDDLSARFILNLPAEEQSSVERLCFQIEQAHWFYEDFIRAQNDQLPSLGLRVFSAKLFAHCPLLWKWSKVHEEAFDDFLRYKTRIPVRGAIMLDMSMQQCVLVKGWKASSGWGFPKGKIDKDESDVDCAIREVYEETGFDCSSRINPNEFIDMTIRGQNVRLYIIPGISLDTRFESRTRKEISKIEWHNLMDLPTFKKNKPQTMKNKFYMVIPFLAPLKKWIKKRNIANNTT
# Sequence (Q9P805 whole entry partner): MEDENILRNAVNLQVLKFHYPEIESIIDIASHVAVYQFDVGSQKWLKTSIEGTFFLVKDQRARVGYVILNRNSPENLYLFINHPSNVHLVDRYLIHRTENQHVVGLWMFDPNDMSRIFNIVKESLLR
# Sequence (Q10108 155-180 partner limits assumed): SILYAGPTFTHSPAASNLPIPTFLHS
# EXPERIMENT: Decapping enzyme stability test
# Type: biochemical
# APPLIED CONDITIONS: relative to N-7113
Report as a plain number; the unit % is understood.

[in] Fill in the blank: the reported Decrease relative to N-7113 (decapping rate) of CO[C@@H]1[C@H](OP(=O)(O)OC[C@H]2O[C@@H](n3cnc4c(=O)[nH]c(N)nc43)[C@H](O)[C@@H]2O)[C@@H](COP(=O)(O)OP(=O)(O)OP(=O)(O)OC[C@H]2OC([n+]3cn(C)c4c(=O)[nH]c(N)nc43)[C@H](NC(C)=O)[C@@H](O)[C@@H]2O)O[C@H]1n1cnc2c(N)ncnc21 (stereo partly shown) is ____.
[out] 2.6

[in] Fill in the blank: the reported Decrease relative to N-7113 (decapping rate) of CO[C@@H]1[C@H](OP(=O)(O)OC[C@H]2O[C@@H](n3cnc4c(=O)[nH]c(N)nc43)[C@H](O)[C@@H]2O)[C@@H](COP(=O)(O)OP(=O)(O)OP(=O)(O)OC[C@H]2O[C@@H]([n+]3cn(C)c4c(=O)[nH]c(N)nc43)[C@H](O)[C@@H]2O)O[C@H]1n1cnc2c(N)ncnc21 [N-7113, reference compound] is ____.
[out] 0.0

[in] Fill in the blank: the reported Decrease relative to N-7113 (decapping rate) of `CO[C@@H]1[C@H](OP(=O)(O)OC[C@H]2O[C@@H](n3cnc4c(=O)[nH]c(N)nc43)[C@H](O)[C@@H]2O)[C@@H](COP(=O)(O)OP(=O)(O)OP(=O)(O)OC[C@H]2O[C@@H]([n+]3cn(C)c4c(=O)[nH]c(N)nc43)[C@H](O)[C@]2(C)NC(C)=O)O[C@H]1n1cnc2c(N)ncnc21` is ____.
[out] 26.5

[in] Fill in the blank: the reported Decrease relative to N-7113 (decapping rate) of `COC[C@@H]1[C@H](OP(=O)(O)OC[C@H]2O[C@@H](n3cnc4c(=O)[nH]c(N)nc43)[C@H](O)[C@@H]2O)[C@@H](COP(=O)(O)OP(=O)(O)OP(=O)(O)OC[C@H]2O[C@@H]([n+]3cn(C)c4c(=O)[nH]c(N)nc43)[C@H](O)[C@@H]2O)O[C@H]1n1cnc2c(N)ncnc21` is ____.
[out] 28.5

[in] Fill in the blank: the reported Decrease relative to N-7113 (decapping rate) of `CO[C@@H]1[C@H](OP(=O)(O)OC[C@H]2O[C@@H](n3cnc4c(=O)[nH]c(N)nc43)[C@H](O)[C@@H]2O)[C@@H](COP(=O)(O)OP(=O)(O)OP(=O)(O)OC[C@H]2O[C@@H](C[n+]3cn(C)c4c(=O)[nH]c(N)nc43)[C@H](O)[C@@H]2O)O[C@H]1n1cnc2c(N)ncnc21` is ____.
[out] 7.3

[in] Fill in the blank: the reported Decrease relative to N-7113 (decapping rate) of `CO[C@@H]1[C@H](OP(=O)(O)OC[C@H]2O[C@@H](n3cnc4c(=O)[nH]c(N)nc43)[C@H](O)[C@@H]2O)[C@@H](COP(=O)(O)OP(=O)(O)OP(=O)(O)OC[C@@]2(C(F)F)O[C@@H]([n+]3cn(C)c4c(=O)[nH]c(N)nc43)[C@H](O)[C@@H]2O)O[C@H]1n1cnc2c(N)ncnc21` is ____.
[out] 32.4

[in] Fill in the blank: the reported Decrease relative to N-7113 (decapping rate) of `CO[C@@H]1[C@H](OP(=O)(O)OC[C@H]2O[C@@H](n3cnc4c(=O)[nH]c(N)nc43)[C@H](O)[C@@H]2O)[C@@H](COP(=O)(O)OP(=O)(O)OP(=O)(O)OC[C@H]2O[C@@H]([n+]3cn(C)c4c(=O)[nH]c(N)nc43)[C@H](O)[C@@H]2C(F)F)O[C@H]1n1cnc2c(N)ncnc21` is ____.
[out] 33.6
